# reported selectivity ratio; entries follow
test: Selectivity index, ratio of LD50 for african green monkey Vero cells to IC50 for Trypanosoma brucei brucei 427-221; assay type: toxicity, cell-based; conditions: read-out: Ratio LD50/IC50
Non-standard residues stand in square brackets, D forms with d. Residues, ends and D or L forms follow the SMILES beside them. *: point of attachment. Octanoyl(2R-Me,7,8-dehydro) = C=CCCCC[C@@H](C)C(=O)*; Oct7ynoyl(2R-Me) = C#CCCCC[C@@H](C)C(=O)*; NMeF = CN[C@@H](Cc1ccccc1)C(=O)O; Oct(7)ynoyl = C#CCCCCCC(=O)*; NMeV = CN[C@H](C(=O)O)C(C)C; NMeA = CN[C@@H](C)C(=O)O; X3 = C=CCCCCC(=O)*
Quantity: selectivity ratio

• C#CCCCC[C@@H](C)C(=O)N(C)[C@H](C(=O)N(C)[C@H](C(=O)N[C@H](C(=O)N(C)[C@@H](C)C(=O)N(C)[C@@H](Cc1ccccc1)C(N)=O)C(C)C)C(C)C)C(C)C [ALMIRAMIDE B] ({Oct7ynoyl(2R-Me)}-[NMeV][NMeV]V[NMeA][NMeF]-NH2) = 8.7
• C=CCCCC[C@@H](C)C(=O)N(C)[C@H](C(=O)N(C)[C@H](C(=O)N[C@H](C(=O)N(C)[C@@H](C)C(=O)N(C)[C@@H](Cc1ccccc1)C(N)=O)C(C)C)C(C)C)C(C)C [ALMIRAMIDE C] ({Octanoyl(2R-Me,7,8-dehydro)}-[NMeV][NMeV]V[NMeA][NMeF]-NH2) = 11
• C=CCCCCC(=O)N(C)[C@H](C(=O)N(C)[C@H](C(=O)N(C)[C@H](C(=O)N(C)[C@@H](C)C(=O)N(C)[C@@H](Cc1ccccc1)C(=O)O)C(C)C)C(C)C)C(C)C (X3-[NMeV][NMeV][NMeV][NMeA][NMeF]-OH) = > 27
• C#CCCCCCC(=O)N(C)[C@H](C(=O)N(C)[C@H](C(=O)N(C)[C@H](C(=O)N(C)[C@@H](C)C(=O)N(C)[C@@H](Cc1ccccc1)C(=O)O)C(C)C)C(C)C)C(C)C ({Oct(7)ynoyl}-[NMeV][NMeV][NMeV][NMeA][NMeF]-OH) = > 6.7
